TARGET OF ASSAY: UniProt P30559
Sequence (P30559 whole entry): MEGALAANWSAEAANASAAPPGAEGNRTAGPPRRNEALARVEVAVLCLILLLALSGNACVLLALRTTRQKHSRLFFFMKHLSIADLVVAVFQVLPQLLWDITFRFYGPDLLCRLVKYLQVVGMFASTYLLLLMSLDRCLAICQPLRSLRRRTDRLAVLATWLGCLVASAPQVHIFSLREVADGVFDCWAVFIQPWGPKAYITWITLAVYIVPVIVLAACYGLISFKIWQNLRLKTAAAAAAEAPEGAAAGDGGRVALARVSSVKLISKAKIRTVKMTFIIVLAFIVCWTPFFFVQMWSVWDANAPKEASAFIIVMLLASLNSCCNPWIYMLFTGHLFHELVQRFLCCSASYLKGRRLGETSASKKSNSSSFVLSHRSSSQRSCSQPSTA
TEST METHOD NOTES: In vitro binding assay (SPA), competition with [125I]-OVTA on membranes from HEK293EBNA cells expressing the hOT receptor
Set-up: expressed in transfected cells; host or cells: HEK293EBNA
CONDITION NOTES: 0.2 nM [125I]-OVTA, read-out: Binding affinity human OT-R IC50
REPORTED PROPERTY: IC50 (nM)
Express your answer in nM, writing the number without its unit.

Please report the recorded IC50 for CON=C1C[C@@H](C(=O)NC[C@@H](O)c2ccccc2)N(C(=O)c2cccc(Oc3ccccc3)c2)C1 (racemic) .
2300

Please report the recorded IC50 for "CON=C1C[C@@H](C(=O)N[C@@H]2CCCC[C@H]2CO)N(C(=O)c2ccc(-c3ccccc3OC)cc2)C1" .
550

Please report the recorded IC50 for "CON=C1C[C@@H](C(=O)NCCCO)N(C(=O)c2ccc(-c3ccccc3C)cc2)C1" .
370
